target: human GPR119 (Homo sapiens)
Sequence (Q8TDV5 1-308 limits assumed): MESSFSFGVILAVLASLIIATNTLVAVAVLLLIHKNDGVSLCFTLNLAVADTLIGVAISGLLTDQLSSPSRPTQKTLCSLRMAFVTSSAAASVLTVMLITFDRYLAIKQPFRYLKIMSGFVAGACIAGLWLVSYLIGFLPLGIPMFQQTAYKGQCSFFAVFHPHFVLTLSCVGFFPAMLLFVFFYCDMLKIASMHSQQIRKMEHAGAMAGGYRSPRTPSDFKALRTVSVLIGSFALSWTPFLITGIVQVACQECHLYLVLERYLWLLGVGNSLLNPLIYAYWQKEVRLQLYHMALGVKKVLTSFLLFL
assay comment: Measurement of GPR119 signaling (cAMP assay) in cells stably transfected with human GPR119
Type: cell-based
test parameters: table column; cAMP stimulation, human GPR119; read-out: GPR119 Human EC50
pEC50 values for the compounds below.
Quick note: pEC50 means taking -log10 of the concentration in moles per liter.

Field: example entries. Status: answers known.
| compound | result |
| --- | --- |
| CC(C)c1noc(N2CCC([C@H]3C[C@H]3CCOc3ccc(CC(=O)N4CCn5nc(C(F)(F)F)nc5C4C)c(F)c3)CC2)n1 (stereo partly drawn) [Example 178] | 7.85 |
| CC(C)c1noc(N2CCC([C@H]3C[C@H]3CCOc3ccc(CC(=O)N4Cc5nnc(C(F)(F)F)n5C(C)C4)c(F)c3)CC2)n1 (stereo partly drawn) [Example 182] | 8.06 |
| CC(C)c1noc(N2CCC([C@H]3C[C@H]3CCOc3ccc(CC(=O)N4Cc5nnc(C(F)(F)F)n5C(C)(C)C4)c(F)c3)CC2)n1 [Example 185] | 8.06 |
| CC(C)c1noc(N2CCC([C@H]3C[C@H]3CCOc3ccc(CC(=O)N4CC(c5cccnc5)C4)c(F)c3)CC2)n1 [Example 190] | 8.44 |

Kindly note the recorded pEC50 for CC(C)(C)OC(=O)N1CCC([C@H]2C[C@H]2CCOc2ccc(-n3cnnn3)cc2)CC1 [Example 5] , which is 8.15

Kindly note the recorded pEC50 for COCc1noc(N2CCC([C@H]3C[C@H]3CCOc3cc(F)c(CC(=O)N4CCOCC4)c(F)c3)CC2)n1 [Example 207] , which is 8.51

Kindly note the recorded pEC50 for Cc1nc2c([nH]1)CN(C(=O)Cc1ccc(OCC[C@@H]3C[C@@H]3C3CCN(c4nc(C(C)C)no4)CC3)cc1F)C2 [Example 192] , which is 8.38

Kindly note the recorded pEC50 for CC1(c2nc(N3CCC([C@H]4C[C@H]4CCOc4ccc(S(C)(=O)=O)cn4)CC3)no2)CC1 [Example 240] , which is 8.28

Kindly note the recorded pEC50 for CS(=O)(=O)c1ccc(OCC[C@@H]2C[C@@H]2C2CCN(c3noc(CC4CC4)n3)CC2)nc1 [Example 243] , which is 8.01

Kindly note the recorded pEC50 for O=C(CC1CC2C=CC1C2)N1CCC([C@H]2C[C@H]2CCOc2ccc(-n3cnnn3)cc2)CC1 (stereo partly drawn) [Example 84] , which is 8.43

Kindly note the recorded pEC50 for Cc1nc(C#N)cc(OCC[C@@H]2C[C@@H]2C2CCN(C(=O)OC(C)C)CC2)n1 [Example 46] , which is 8.92

Kindly note the recorded pEC50 for CC1(COC(=O)N2CCC([C@H]3C[C@H]3CCOc3ccc(S(C)(=O)=O)cn3)CC2)CCC1 [Example 26] , which is 9.22
